Target: 5-HT1A receptors (Homo sapiens, UniProt P08908)
Sequence (P08908 1-422): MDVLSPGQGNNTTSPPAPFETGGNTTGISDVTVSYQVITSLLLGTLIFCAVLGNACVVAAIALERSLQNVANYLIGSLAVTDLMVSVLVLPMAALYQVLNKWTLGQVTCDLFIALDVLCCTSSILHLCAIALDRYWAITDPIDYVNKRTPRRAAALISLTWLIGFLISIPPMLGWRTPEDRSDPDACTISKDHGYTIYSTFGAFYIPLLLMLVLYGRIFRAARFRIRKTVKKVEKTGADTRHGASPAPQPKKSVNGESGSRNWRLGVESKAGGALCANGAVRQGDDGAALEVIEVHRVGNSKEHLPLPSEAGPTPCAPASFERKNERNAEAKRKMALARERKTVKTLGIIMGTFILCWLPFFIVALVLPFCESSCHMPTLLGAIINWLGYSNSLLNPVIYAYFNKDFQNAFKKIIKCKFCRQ
assay.metric: pKi
API: returns pKi as number; meaning -log10 of concentration in mol/L.

Check out these entries, answers already filled in.
molecule="CN1CCc2c(sc3ncn(CCN4CC=C(c5c[nH]c6ccccc56)CC4)c(=O)c23)C1 [Example 20]" observed_result=8.92
molecule="CN1CCc2c(sc3ncn(CCN4CCC(c5cc(-c6cccs6)[nH]n5)CC4)c(=O)c23)C1 [Example 24]" observed_result=7.01
molecule="CN1CCc2c(sc3ncn(CCN4CC=C(c5c[nH]c6ncccc56)CC4)c(=O)c23)C1 [Example 21, acetate]" observed_result=7.84

Suppose we examine the molecule COc1ccc2onc(N3CCN(CCn4cnc5sc6c(c5c4=O)CCN(C)C6)CC3)c2c1 [Example 15] ; what pKi value has been reported?
7.86

Next molecule: CN1CCc2c(sc3ncn(CCN4CCN(c5snc6ccccc56)CC4)c(=O)c23)C1 [Example 31]
7.37

Next molecule: CN1CCc2c(sc3ncn(CCN4CC=C(c5csc6ccccc56)CC4)c(=O)c23)C1 [Example 28]
8.89

Next molecule: COc1ccc2[nH]cc(C3=CCN(CCn4cnc5sc6c(c5c4=O)CCN(C)C6)CC3)c2c1 [Example 32]
9.30

----------
List of melting point values.

Check out these entries, answers already filled in.
molecule="CN1CCc2c(sc3ncn(CCN4CCN(c5nc6ccccc6[nH]5)CC4)c(=O)c23)C1 [Example 8]" observed_result="227 to 229 °C"
molecule="CN1CCc2c(sc3ncn(CCN4CCN(c5nc6ccccc6o5)CC4)c(=O)c23)C1 [Example 10]" observed_result="130 to 132 °C"
molecule="CN1CCc2c(sc3ncn(CCN4CCN(c5nsc6cccc(Cl)c56)CC4)c(=O)c23)C1 [Example 5]" observed_result="88 to 89 °C"
molecule="CN1CCc2c(sc3ncn(CCN4CCN(c5nc6ccc(Cl)cc6s5)CC4)c(=O)c23)C1 [Example 7]" observed_result="160 to 162 °C"
molecule="CN1CCc2c(sc3ncn(CCN4CCN(c5nc6cc(C(F)(F)F)ccc6s5)CC4)c(=O)c23)C1 [Example 6]" observed_result="166 to 167 °C"
molecule="CN1CCc2c(sc3ncn(CCN4CCN(c5nc6ccccc6s5)CC4)c(=O)c23)C1 [Example 11]" observed_result="151 to 153 °C"

Suppose we examine the molecule CN1CCc2c(sc3ncn(CCN4CCN(c5nsc6ccccc56)CC4)c(=O)c23)C1 [Example 4] ; what melting point value has been reported?
82 to 84 °C
